Target: T1, Human plasma sIL-6R (human, UniProt P08887 20-355, limits assumed)
T1 construct: also called plasma-derived human IL-6R
T1 sequence (looked up): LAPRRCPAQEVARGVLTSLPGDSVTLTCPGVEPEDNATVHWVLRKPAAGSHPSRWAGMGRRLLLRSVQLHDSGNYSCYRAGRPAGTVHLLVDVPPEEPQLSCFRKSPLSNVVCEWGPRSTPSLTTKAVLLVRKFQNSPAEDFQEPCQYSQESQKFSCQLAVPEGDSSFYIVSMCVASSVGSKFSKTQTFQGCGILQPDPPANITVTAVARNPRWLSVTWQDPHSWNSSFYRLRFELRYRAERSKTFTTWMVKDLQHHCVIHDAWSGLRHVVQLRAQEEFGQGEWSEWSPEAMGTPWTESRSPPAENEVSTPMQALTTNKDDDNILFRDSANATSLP
Test: plasma potency assay, human plasma, 2.4 nM IL6; blocked ligand IL-6
observation_type: IC50 (pM)
# number only, unit pM dropped from output

Value of IC50 reported for the binder PMP7D6 (VHH, not shown: c-myc and (His)6 tags) VHH: EVQLVESGGGLVQPGGSLRLSCAASGSIFRVNVMAWYRQAPGKGRELVAAVINGGTTTYADSVKGRFTISRDNAKNTLYLQMNSLRPEDTAVYYCAFVTTNSDYDLGRDYWGQGTLVTVSS is 250

Value of IC50 reported for the binder Reference IgG (antibody, V domains shown, Full-length human IgG1 produced in CHO cells) VH: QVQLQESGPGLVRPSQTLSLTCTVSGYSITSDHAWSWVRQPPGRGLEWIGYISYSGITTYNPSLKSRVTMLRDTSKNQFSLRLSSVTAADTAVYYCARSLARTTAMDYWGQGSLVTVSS VL: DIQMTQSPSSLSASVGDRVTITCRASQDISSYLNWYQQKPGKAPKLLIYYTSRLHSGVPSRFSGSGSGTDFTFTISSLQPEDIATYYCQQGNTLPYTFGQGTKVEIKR is 200

Value of IC50 reported for the binder PMP21D11 (VHH, not shown: c-myc and (His)6 tags) VHH: EVQLVESGGGLVQPGGSLRLSCAASGSVFKINVMAWYRQAPGKGRELVAGIVTGGSTSYADSVKGRFTISRDNAKNTLYLQMNSLRPEDTAVYYCAFITTESDYDLGRRYWGQGTLVTVSS is 130

Value of IC50 reported for the binder PMP20F6 (VHH, not shown: c-myc and (His)6 tags) VHH: EVQLVESGGGLVQPGGSLRLSCAASGSVFKINVMAWYRQAPGKGRELVAGIVSGGSTSYADSVKGRFTISRDNAKNTLYLQMNSLRPEDTAVYYCAFITTNSDYDLGRRYWGQGTLVTVSS is 130

Value of IC50 reported for the binder PMP20A11 (VHH, also called IL6R20A11; IL6R300; not shown: c-myc and (His)6 tags) VHH: EVQLVESGGGLVQPGGSLRLSCAASGSVFKINVMAWYRQAPGKGRELVAGIISGGSTSYADSVKGRFTISRDNAKNTLYLQMNSLRPEDTAVYYCAFITTESDYDLGRRYWGQGTLVTVSS is 90

Value of IC50 reported for the binder IL6R65 (VHH, also called ILR65; parent Nanobody) VHH: EVQLVESGGGLVQPGGSLRLSCAASGSIFKVNAMGWYRQAPGKGRELVAGIISGGSTNYADSVKGRFTISRDNAKNTLYLQMNSLRPEDTAVYYCAFVTTNSDYDLGRDYWGQGTLVTVSS is 1900

Value of IC50 reported for the binder PMP20E10 (VHH, not shown: c-myc and (His)6 tags) VHH: EVQLVESGGGLVQPGGSLRLSCAASGSVFKINVMAWYRQAPGKGRELVAGIVSGGSTSYADSVKGRFTISRDNAKNTLYLQMNSLRPEDTAVYYCAFITTESDYDLGRRYWGQGTLVTVSS is 130

Value of IC50 reported for the binder PMP21A10 (VHH, not shown: c-myc and (His)6 tags) VHH: EVQLVESGGGLVQPGGSLRLSCAASGSIFKINVMAWYRQAPGKGRELVAGIVTGGSTSYADSVKGRFTISRDNAKNTLYLQMNSLRPEDTAVYYCAFITTESDYDLGRRYWGQGTLVTVSS is 100
